- METHOD: Urinary recovery rate upon oral administration to rats
- Assay type: in vivo, male SD rats
- SETUP_CONDITIONS: urine, rat, 20 mg/kg or 10 mg/kg, 0-6 hours, paper disk method
MEASURE_NAME: dose excreted at 6 h (%)
Numbers only, in %.

Before answering, review these 5 worked examples.
Nc1cc(-n2cc(C(=O)O)c(=O)c3cc(F)c(N4CC(N)C4)c(Cl)c32)c(F)cc1F [Referential compound, reference compound]; 7.6
NC1CCN(c2nc3c(cc2F)c(=O)c(C(=O)O)cn3-c2ccc(F)cc2F)C1 (stereo not drawn) [Tosufloxacin, reference compound]; 19
CNc1c(F)cc2c(=O)c(C(=O)O)cn(-c3cc(N)c(F)cc3F)c2c1Cl; 1.2
C[C@H]1COc2c(N3CCN(C)CC3)c(F)cc3c(=O)c(C(=O)O)cn1c23 [Levofloxacin, reference compound]; 21.2
Cc1c(N)c(F)cc2c(=O)c(C(=O)O)cn(-c3cc(N)c(F)cc3F)c12; 4.8

Requested field: dose excreted at 6 h. Item: `Nc1cc(-n2cc(C(=O)O)c(=O)c3cc(F)c(N)c(Cl)c32)c(F)cc1F`
9.7
